System: HeLa cells
Assay Notes: Proliferation assay, HeLa
Format: cell-based
Recorded Conditions: Homo sapiens, 96 h, 4 days, crystal violet, read-out: Inhibition of HeLa cell proliferation IC50
Test Readout: IC50 (µM)

Compound | Measurement Units | Value
CS(=N)(=O)Cc1cc2cc(c1)OCCCCCOc1cc(ccc1F)-c1nc(ncc1F)N2 (racemic) | µM | 0.199
CC(C)(C)OC(=O)N=S(C)(=O)Cc1cc2cc(c1)OCCCCOc1cc(ccc1F)-c1nc(ncc1F)N2 (racemic) | µM | 0.244
CS(=N)(=O)Cc1cc2cc(c1)OCCCOc1cc(ccc1F)-c1nc(ncc1F)N2 (racemic) | µM | 0.128

(P) CC(C)(C)OC(=O)N=S(C)(=O)Cc1cc2cc(c1)OCCCCCOc1cc(ccc1F)-c1nc(ncc1F)N2 (racemic)
(Q) CS(=N)(=O)Cc1cc2cc(c1)OCCCCOc1c(F)ccc(c1F)-c1nc(ncc1F)N2 (racemic)
Between the entries labeled P and Q , whose measured IC50 is lower? Your choice should be expressed through its label.
Q

(a) CS(=N)(=O)Cc1cc2cc(c1)OCCCCOc1cc(ccc1F)-c1nc(ncc1F)N2 (racemic)
(b) CS(=N)(=O)Cc1cc2nc(c1)OCCCCOc1cc(ccc1F)-c1cc(ncc1F)N2 (racemic)
Please tell me which of the two, a or b , has the higher reported IC50 value. Your choice should be expressed through its label.
a
